All figures here come from ChEMBL document CHEMBL1909046.

- Target Or Test System: 5-hydroxytryptamine receptor 6 (Homo sapiens); note: in other assays of this panel Not Active means under 50% inhibition at 10 µM
- Sequence (P50406 whole entry): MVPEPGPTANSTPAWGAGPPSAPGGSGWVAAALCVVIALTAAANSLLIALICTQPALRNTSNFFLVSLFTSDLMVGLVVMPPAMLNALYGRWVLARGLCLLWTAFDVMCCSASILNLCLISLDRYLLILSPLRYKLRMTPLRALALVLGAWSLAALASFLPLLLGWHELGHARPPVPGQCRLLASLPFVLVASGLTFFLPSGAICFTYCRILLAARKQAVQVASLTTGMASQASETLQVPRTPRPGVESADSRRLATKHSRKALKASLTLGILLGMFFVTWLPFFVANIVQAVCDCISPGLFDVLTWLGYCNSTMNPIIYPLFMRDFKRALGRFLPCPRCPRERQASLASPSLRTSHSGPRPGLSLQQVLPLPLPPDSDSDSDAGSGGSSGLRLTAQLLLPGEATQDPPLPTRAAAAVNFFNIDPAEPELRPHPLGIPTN
- Assay type: cell membranes, HeLa, Membrane
- Condition Summary: read-out: Ki

| Compound | Target Or Test System | Measurement Units | Ki |
| --- | --- | --- | --- |
| COc1ccccc1OCCNCC(O)COc1cccc2[nH]c3ccccc3c12 (stereo not drawn) [CARVEDILOL] | 5-hydroxytryptamine receptor 6 (Homo sapiens) | nM | 705 |
| CC(CN1c2ccccc2Sc2ccccc21)N(C)C (stereo not drawn) [PROMETHAZINE] | 5-hydroxytryptamine receptor 6 (Homo sapiens) | nM | 1130 |
| Cc1cc(C(C)(C)C)c(O)c(C)c1CC1=NCCN1 [OXYMETAZOLINE] | 5-hydroxytryptamine receptor 6 (Homo sapiens) | nM | 775 |

###

- Target Or Test System: Receptor tyrosine-protein kinase erbB-2 (Homo sapiens); note: in other assays of this panel Not Active means under 50% inhibition at 10 µM;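 note: inhibition of HER2 kinase enzyme activity, measured with Poly(Glu:Tyr) as the phosphorylation substrate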
- Sequence (P04626 whole entry): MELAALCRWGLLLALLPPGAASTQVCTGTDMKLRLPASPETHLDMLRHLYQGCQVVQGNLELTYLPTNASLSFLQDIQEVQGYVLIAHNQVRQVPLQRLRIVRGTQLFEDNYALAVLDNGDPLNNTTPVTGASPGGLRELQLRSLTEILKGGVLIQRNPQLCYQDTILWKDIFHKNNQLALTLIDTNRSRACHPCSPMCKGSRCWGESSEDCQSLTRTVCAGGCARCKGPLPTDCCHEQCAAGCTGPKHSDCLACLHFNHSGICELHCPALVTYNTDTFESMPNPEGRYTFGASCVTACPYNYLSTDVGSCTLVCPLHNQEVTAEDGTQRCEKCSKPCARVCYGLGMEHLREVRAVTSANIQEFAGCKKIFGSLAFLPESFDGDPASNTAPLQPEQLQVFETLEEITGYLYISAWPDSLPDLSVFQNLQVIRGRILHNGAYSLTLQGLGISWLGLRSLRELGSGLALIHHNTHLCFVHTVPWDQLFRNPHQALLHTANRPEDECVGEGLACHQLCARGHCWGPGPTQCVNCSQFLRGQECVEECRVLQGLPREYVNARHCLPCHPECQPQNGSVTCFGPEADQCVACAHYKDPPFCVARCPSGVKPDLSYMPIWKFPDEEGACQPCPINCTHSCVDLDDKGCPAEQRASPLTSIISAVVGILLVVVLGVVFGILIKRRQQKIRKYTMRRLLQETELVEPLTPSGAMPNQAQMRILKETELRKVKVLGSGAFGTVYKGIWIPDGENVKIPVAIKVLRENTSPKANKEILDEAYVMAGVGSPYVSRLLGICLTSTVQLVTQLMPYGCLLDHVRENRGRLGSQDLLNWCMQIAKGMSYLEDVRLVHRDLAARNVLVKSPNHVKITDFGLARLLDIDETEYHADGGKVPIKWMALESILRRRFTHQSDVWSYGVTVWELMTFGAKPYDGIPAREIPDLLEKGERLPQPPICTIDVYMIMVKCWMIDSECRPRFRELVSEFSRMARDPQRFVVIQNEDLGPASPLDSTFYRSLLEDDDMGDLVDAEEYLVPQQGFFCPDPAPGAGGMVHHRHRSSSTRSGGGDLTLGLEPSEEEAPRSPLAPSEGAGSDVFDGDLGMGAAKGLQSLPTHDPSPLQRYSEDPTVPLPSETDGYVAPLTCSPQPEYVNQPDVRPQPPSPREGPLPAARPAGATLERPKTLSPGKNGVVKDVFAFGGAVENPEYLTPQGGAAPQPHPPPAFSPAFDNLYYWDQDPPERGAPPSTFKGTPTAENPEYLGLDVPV
- Assay type: cell-based
- Condition Summary: insect cells
Observable: IC50

| Molecule | Observable | Measured Value |
| --- | --- | --- |
| CC(C)Cn1cnc2c(N)nc3ccccc3c21 | IC50 | Not Active |
| CC[C@H]1OC(=O)[C@H](C)[C@@H](O[C@H]2C[C@@](C)(OC)[C@@H](O)[C@H](C)O2)[C@H](C)[C@@H](O[C@@H]2O[C@H](C)C[C@H](N(C)C)[C@H]2O)[C@](C)(O)C[C@@H](C)C(=O)[C@H](C)[C@@H](O)[C@]1(C)O | IC50 | Not Active |
| Cc1cnc(NC(=O)C2=C(O)c3ccccc3S(=O)(=O)N2C)s1 | IC50 | Not Active |
| c1ccc2sc(SSc3nc4ccccc4s3)nc2c1 [BENZOTHIAZYL DISULFIDE] | IC50 | Not Active |
| COc1ccccc1OCCNCC(O)COc1cccc2[nH]c3ccccc3c12 (configuration not stated) | IC50 | Not Active |
| CC[C@H](C)C(=O)O[C@H]1CCC=C2C=C[C@H](C)[C@H](CC[C@@H]3C[C@@H](O)CC(=O)O3)[C@H]21 | IC50 | Not Active |
| O=C(O)c1cc(/N=N/c2ccc(S(=O)(=O)Nc3ccccn3)cc2)ccc1O | IC50 | Not Active |
| ClC1=C(Cl)[C@]2(Cl)[C@@H]3[C@@H]4C[C@@H]([C@H]5O[C@@H]45)[C@@H]3[C@@]1(Cl)C2(Cl)Cl | IC50 | Not Active |
| O=C(OC[C@H]1O[C@@H](OC(=O)c2cc(O)c(O)c(OC(=O)c3cc(O)c(O)c(O)c3)c2)[C@H](OC(=O)c2cc(O)c(O)c(OC(=O)c3cc(O)c(O)c(O)c3)c2)[C@@H](OC(=O)c2cc(O)c(O)c(OC(=O)c3cc(O)c(O)c(O)c3)c2)[C@@H]1OC(=O)c1cc(O)c(O)c(OC(=O)c2cc(O)c(O)c(O)c2)c1)c1cc(O)c(O)c(OC(=O)c2cc(O)c(O)c(O)c2)c1 | IC50 | Not Active |
| CS(=O)(=O)c1ccc(C2=C(c3ccccc3)C(=O)OC2)cc1 | IC50 | Not Active |
| CC12CCC(CC1=O)C2(C)C (configuration not stated) | IC50 | Not Active |
| Cc1ccnc2c1NC(=O)c1cccnc1N2C1CC1 | IC50 | Not Active |
| O=c1[nH]cnc2c1ncn2[C@H]1CC[C@@H](CO)O1 | IC50 | Not Active |
| NC(=O)NC(=O)Cc1ccccc1 [PHENACEMIDE] | IC50 | Not Active |
| CC(C)Cc1ccc([C@H](C)C(=O)O)cc1 | IC50 | Not Active |
| COc1cc([C@@H]2c3cc4c(cc3[C@H](O)[C@H]3COC(=O)[C@H]23)OCO4)cc(OC)c1OC | IC50 | Not Active |
| C=CCc1ccc2c(c1)OCO2 | IC50 | Not Active |
| COc1cc(NC(C)CCCN)c2ncccc2c1 (configuration not stated) | IC50 | Not Active |
| CC(C)(C)NC[C@H](O)COc1cccc2c1CCCC2=O | IC50 | Not Active |
| CC(C)NCC(O)COc1ccc(CC(N)=O)cc1 (configuration not stated) | IC50 | Not Active |
| CC[C@@]1(O)C(=O)OCc2c1cc1n(c2=O)Cc2cc3c(CN(C)C)c(O)ccc3nc2-1 | IC50 | Not Active |
| O=C1CC[C@@]2(O)[C@H]3Cc4ccc(O)c5c4[C@@]2(CCN3CC2CC2)[C@H]1O5 [NALTREXONE] | IC50 | Not Active |
